Here, each record is paired with measured IC50, 0.1 nM PACAP38-induced PAC1-R mediated cAMP increase data.
- test_target: T1, human PACAP38 (human, not fully specified; C-terminal lysine is amidated; N-terminal or C-terminal biotin in the HTRF and PC-12 cell binding assays)
- T1 peptide: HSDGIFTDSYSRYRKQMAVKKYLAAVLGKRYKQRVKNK
- assay_comment: cell-based or functional assay
I only need the number, in nM, no unit after it.

Query :: Form field: reported IC50, 0.1 nM PACAP38-induced PAC1-R mediated cAMP increase of anti-PACAP antibody Ab6 (antibody, human IgG1, kappa, N297A, V domains shown, full-length rabbit/human chimeric antibody) VH: LEQSGGGAEGGLVKPGGSLELCCKASGFSLSSTYWMCWVRQAPGKGLEWIGCIYTGSGSTDYASWVNGQFTLSRDIDQSTGCLQLNSLTVADTAMYYCTKNFDLWGPGTLVTVSS VL: AQVLTQTPSSVSAAVGGTVTINCQSSPSVYSNNYLSWFQQKPGQPPKGLIADASTLASGVPSRFKGSGSGTQFTLTISGVQCDDAAAYYCLGYYDCGSTDCHAFGGGTEVVVKR
Result :: 0.0512

Shifting focus to the binder that follows.
Query :: Form field: reported IC50, 0.1 nM PACAP38-induced PAC1-R mediated cAMP increase of anti-PACAP antibody Ab18 (antibody, human IgG1, kappa, N297A, V domains shown, full-length rabbit/human chimeric antibody) VH: QSVEESGGRLVTPGTPLTLTCTVSGFSLSSAALSWVRQAPGKGLEWIGIIDKGVMSYYASWAKGRFTISKTSSTTVDLKVTSPTTEDTATYFCARGGGEFFIWGQGTLVTVSS VL: AQVLTQTPSSVSAAVGGTVTINCQSSKSVYNNNWLSWYQQKPGQPPKFLIYQASNLASGVPSRFKGSGSGTQFTLTISDLECDDAATYYCAGGYSGNIVGFGGGTEVVVKR
Result :: 0.118
